- TEST SUMMARY: Mouse liver microsome stability assay
- Assay type: in vitro ADME
- DETAILS: male, CD1, mouse, microsomes, pH 7.4

# COMPOUND, INEQUALITY SIGN, half-life at 0.5 μM (min)
data = [
    ("Cn1cc(-c2ccccc2C(O)c2ccc(Cl)cc2)c2cc[nH]c2c1=O (stereo not shown)", "=", 18),
    ("CCS(=O)(=O)N1CCN(C(=O)c2ccc(Oc3ccc(F)cc3F)c(-c3cn(C)c(=O)c4[nH]ccc34)c2)CC1", "=", 10),
    ("CCS(=O)(=O)Nc1ccc(Oc2ccc(F)cc2F)c(-c2cn(C)c(=O)c3[nH]c(CN4CCN(C)CC4)cc23)c1", "=", 67),
    ("Cn1cc(-c2cc(S(C)(=O)=O)ccc2OCCN2CCOCC2)c2cc[nH]c2c1=O", ">", 120),
]

---

- Test system: Raji
- TEST SUMMARY: Proliferation panel assay, AML Raji
- Type: cell-based
- DETAILS: Homo sapiens, Burkitt lymphoma, read-out: Cellular Proliferation EC50

# STRUCTURE, EC50 / nM
records = [
    ("Cn1cc(-c2cc(NS(C)(=O)=O)ccc2Oc2ccccc2)c2cc[nH]c2c1=O", 6),
    ("Cn1nc(-c2cc(NS(C)(=O)=O)ccc2Oc2ccccc2)c2cc(C(N)=O)[nH]c2c1=O", 84),
]

---

// half-life at 0.5 μM lookup, one value per entry
- TEST SUMMARY: Rat liver microsome stability assay
- Type: in vitro ADME
- DETAILS: rat liver microsomes (male Sprague-Dawley), 0.5 μM test compound, 0.25 mg/mL microsomal protein, pH 7.4, 37° C.; read-out: Stability in rat liver microsomes (t1/2 in minutes)
METRIC: half-life at 0.5 μM (min)

# MOLECULE, U, INEQUALITY SIGN, VALUE
data = [
    ("Cn1cc(-c2cc(NS(C)(=O)=O)ccc2OC2CCC(F)(F)CC2)c2cc[nH]c2c1=O [Example 59]", "min", "=", 40),
    ("Cn1cc(-c2cc(NS(=O)(=O)CC(F)(F)F)ccc2OC2CCOCC2)c2cc[nH]c2c1=O [Example 100]", "min", "=", 71),
    ("Cn1cc(-c2cc(S(=O)(=O)C3CC3)ccc2Oc2ccc(F)cc2F)c2cc[nH]c2c1=O [Example 290]", "min", "=", 48),
    ("CCCS(=O)(=O)Nc1ccc(Oc2c(F)cc(F)cc2F)c(-c2cn(C)c(=O)c3[nH]ccc23)c1 [Example 94]", "min", "=", 28),
    ("CCS(=O)(=O)c1ccc(OCC2CC2)c(-c2cn(C)c(=O)c3[nH]ncc23)c1 [Example 323]", "min", ">", 120),
    ("CCNC(=O)c1cc2c(-c3cc(S(C)(=O)=O)ccc3Oc3ccc(F)cc3F)cn(C)c(=O)c2[nH]1 [Example 253]", "min", "=", 110),
    ("Cn1cc(-c2cc(C(=O)N3CCC(NC(=O)OC(C)(C)C)CC3)ccc2Oc2ccc(F)cc2F)c2cc[nH]c2c1=O [Example 135]", "min", "=", 24),
    ("Cn1cc(-c2cc(C(=O)N3CCN(C(=O)c4ccco4)CC3)ccc2Oc2ccc(F)cc2F)c2cc[nH]c2c1=O [Example 134]", "min", "=", 21),
    ("Cn1cc(-c2cc(S(C)(=O)=O)ccc2Oc2ccccc2Cl)c2cc[nH]c2c1=O [Example 152]", "min", "=", 10),
    ("Cn1cc(-c2cc(NS(=O)(=O)C3CC3)ccc2Oc2ccc(F)cc2F)c2cc[nH]c2c1=O [Example 235]", "min", "=", 49),
    ("Cn1cc(-c2cc(S(=O)(=O)N3CCC(O)CC3)ccc2OCC2CC2)c2cc[nH]c2c1=O [Example 354]", "min", "=", 41),
    ("Cn1cc(-c2cc(S(C)(=O)=O)ccc2OC2Cc3ccccc3C2)c2cc[nH]c2c1=O [Example 277]", "min", "=", 5),
    ("Cn1cc(-c2cc(S(C)(=O)=O)ccc2Oc2ccc(F)cc2F)c2cc(C(N)=O)[nH]c2c1=O [Example 252]", "min", ">", 120),
    ("Cn1cc(-c2cc(S(N)(=O)=O)cnc2Oc2ccc(F)cc2F)c2cc[nH]c2c1=O [Example 242]", "min", "=", 86),
    ("CCNc1ccc(Oc2ccccc2)c(-c2nn(C)c(=O)c3[nH]c(C(=O)OCC)cc23)c1 [Example 75]", "min", "=", 3),
    ("Cn1cc(-c2cc(S(N)(=O)=O)cnc2NC2CCCCC2)c2cc[nH]c2c1=O [Example 96]", "min", "=", 13),
]

---

- TEST SUMMARY: Rat liver microsome stability assay
- Assay type: in vitro ADME
- DETAILS: rat liver microsomes (male Sprague-Dawley), 0.5 μM test compound, 0.25 mg/mL microsomal protein, pH 7.4, 37° C.; read-out: Stability in rat liver microsomes (t1/2 in minutes)

# COMPOUND, INEQUALITY SIGN, half-life at 0.5 μM, min
data = [
    ("Cn1cc(-c2cc(C(=O)N3CCCC3)ccc2Oc2ccc(F)cc2F)c2cc[nH]c2c1=O", "=", 9),
    ("CCS(=O)(=O)C(C)(C)c1ccc(Oc2ccc(F)cc2F)c(-c2cn(C)c(=O)c3[nH]ccc23)c1", "=", 47),
    ("Cn1cc(-c2cc(C(=O)NC3CCCC3)ccc2Oc2ccccc2)c2cc[nH]c2c1=O", "=", 4),
    ("CCS(=O)(=O)c1ccc(N2CCCC2)c(-c2cn(C)c(=O)c3[nH]ccc23)c1", "=", 12),
    ("CCS(=O)(=O)c1ccc(O[C@H]2CC[C@@H](O)CC2)c(-c2cn(C)c(=O)c3[nH]ccc23)c1", ">", 120),
    ("Cn1cc(-c2cc(S(C)(=O)=O)ccc2OCC2(F)COC2)c2cc[nH]c2c1=O", "=", 118),
    ("Cn1cc(-c2cc(S(C)(=O)=O)ccc2Oc2ccc3cccnc3c2)c2cc[nH]c2c1=O", "=", 22),
    ("Cn1cc(-c2cc(S(C)(=O)=O)cnc2Oc2ccc(F)cc2F)c2cc[nH]c2c1=O", ">", 120),
    ("Cn1cc(-c2cc(NS(C)(=O)=O)cc(Cl)c2Oc2ccccc2)c2cc[nH]c2c1=O", "=", 9),
    ("Cn1cc(-c2cc(C(=O)N3CCC(NC(=O)OC(C)(C)C)C3)ccc2Oc2ccc(F)cc2F)c2cc[nH]c2c1=O (stereo not shown)", "=", 30),
    ("CCS(=O)(=O)c1ccc(NCC2CC2)c(-c2cn(C)c(=O)c3[nH]ccc23)c1", "=", 31),
    ("Cn1cc(-c2cc(S(C)(=O)=O)ccc2Oc2ccc(Cl)cc2)c2cc[nH]c2c1=O", "=", 66),
    ("Cn1cc(-c2cc(NS(=O)(=O)CC(F)(F)F)ccc2OC2CCC(F)(F)CC2)c2cc[nH]c2c1=O", "=", 16),
    ("Cn1cc(-c2cc(S(C)(=O)=O)ccc2OC[C@H]2CCC(=O)N2)c2cc[nH]c2c1=O", ">", 120),
    ("Cc1ccc(S(=O)(=O)n2ccc3c(-c4cc(NS(C)(=O)=O)ccc4Oc4ccccc4)cn(C)c(=O)c32)cc1", "=", 2),
    ("Cc1ccc(F)c(Oc2ccc(S(C)(=O)=O)cc2-c2cn(C)c(=O)c3[nH]ccc23)c1", "=", 3),
]

---

- ASSAY TARGET: human BRD4 first bromodomain (BDI_K57-E168) (Homo sapiens (Human))
- TEST SUMMARY: TR-FRET bromodomain binding assay, BRD4 first bromodomain
Documented Ki across a set of compounds
METRIC: Ki (nM)

# STRUCTURE, VALUE
rows = [
    ("CCOC(=O)N1CCC(Oc2ccc(S(=O)(=O)CC)cc2-c2cn(C)c(=O)c3[nH]ccc23)CC1", 17.9),
    ("CCS(=O)(=O)Nc1ccc(OCc2ccnn2C)c(-c2cn(C)c(=O)c3[nH]ccc23)c1", 6.5),
    ("Cn1cc(-c2cc(NS(=O)(=O)CCF)ccc2Oc2c(F)cc(F)cc2F)c2cc[nH]c2c1=O", 136),
    ("Cn1cc(-c2cc(S(C)(=O)=O)ccc2Oc2ccc3c(c2)C(=O)CC3)c2cc[nH]c2c1=O", 19),
    ("Cc1ccc(Oc2ccc(S(C)(=O)=O)cc2-c2cn(C)c(=O)c3[nH]ccc23)cc1", 11.3),
    ("Cn1cc(-c2cc(NS(C)(=O)=O)ccc2Oc2ccccc2)c2cc(C(=O)O)[nH]c2c1=O", 11.8),
    ("Cn1cc(-c2cc(CNC(=O)CCC(=O)O)ccc2Oc2ccccc2)c2cc[nH]c2c1=O", 54.6),
    ("Cn1cc(-c2cc(C(=O)NC3CCCC3)ccc2Oc2ccccc2)c2cc[nH]c2c1=O", 4.2),
    ("Cn1cc(-c2cc(S(C)(=O)=O)ccc2Oc2cccc3ccccc23)c2cc[nH]c2c1=O", 34.5),
    ("CC(C)COc1ccc(S(C)(=O)=O)cc1-c1cn(C)c(=O)c2[nH]ccc12", 6.6),
    ("Cn1cc(-c2ccc(OCC3CC3)c(-c3cn(C)c(=O)c4[nH]ccc34)c2)cn1", 346),
    ("Cn1cc(-c2cc(S(C)(=O)=O)ccc2OC2Cc3ccccc3C2)c2cc[nH]c2c1=O", 6.3),
    ("Cn1cc(-c2cc(CS(=O)(=O)c3ccccc3)ccc2Oc2ccc(F)cc2F)c2cc[nH]c2c1=O", 82.2),
    ("Cn1cc(-c2cc(-c3ccc(N)nc3)ccc2OCC2CC2)c2cc[nH]c2c1=O", 145),
    ("Cn1cc(-c2cc(S(C)(=O)=O)ccc2Oc2cccc(N)c2)c2cc[nH]c2c1=O", 10.9),
    ("Cn1cc(-c2cc(-c3ccc(F)nc3)ccc2OCC2CC2)c2cc[nH]c2c1=O", 157),
    ("CCS(=O)(=O)Nc1ccc(Oc2ccc(F)cc2F)c(-c2cn(C)c(=O)c3[nH]cc(C=O)c23)c1", 6.6),
    ("Cn1cc(-c2cc(CCO)ccc2OCc2ccccc2)c2cc[nH]c2c1=O", 286),
    ("CCS(=O)(=O)c1cnc(Oc2ccc(F)cc2F)c(-c2cn(C)c(=O)c3[nH]ccc23)c1", 47.9),
    ("Cn1cc(-c2cc(S(C)(=O)=O)ccc2Oc2ccc(F)cc2F)c2cc(COc3cccnc3)[nH]c2c1=O", 12.4),
    ("CC(C)c1ccc(Oc2ccc(S(C)(=O)=O)cc2-c2cn(C)c(=O)c3[nH]ccc23)cc1", 51.3),
    ("CCS(=O)(=O)C(C)(C)c1ccc(Oc2ccc(F)cc2F)c(-c2cn(C)c(=O)c3[nH]ccc23)c1", 2.9),
    ("Cn1nc(-c2cc(NS(C)(=O)=O)ccc2Oc2ccccc2)c2cc(C(N)=O)[nH]c2c1=O", 2.5),
    ("CCS(=O)(=O)Nc1ccc(Oc2ccc(F)cc2F)c(-c2cn(C)c(=O)c3[nH]c(CO)cc23)c1", 4.3),
    ("Cn1cc(-c2cc(S(C)(=O)=O)ccc2Oc2ccc3c(c2)CCC3)c2cc[nH]c2c1=O", 17.8),
    ("CCS(=O)(=O)c1ccc(O[C@H]2CC[C@H](OC)CC2)c(-c2cn(C)c(=O)c3[nH]ccc23)c1", 1),
    ("CNS(=O)(=O)c1cnc(OCC2CC2)c(-c2cn(C)c(=O)c3[nH]ccc23)c1", 5.6),
    ("CN(C)C(=O)c1cc2c(-c3cc(S(C)(=O)=O)ccc3Oc3ccc(F)cc3F)cn(C)c(=O)c2[nH]1", 12.4),
    ("CCN(C)C(=O)c1cc2c(-c3cc(NS(C)(=O)=O)ccc3Oc3ccccc3)nn(C)c(=O)c2[nH]1", 20.9),
    ("CCS(=O)(=O)Nc1ccc(Oc2ccc(F)cc2F)c(-c2cn(C)c(=O)c3[nH]c(C(=O)N4CCN(C)CC4)cc23)c1", 0.86),
    ("Cn1cc(-c2cc(S(C)(=O)=O)ccc2Oc2cc(F)c(F)c(F)c2)c2cc[nH]c2c1=O", 28.9),
]
